Tested on: OVCAR-8
test: NCI tumour cell line growth inhibition, 48 h
Calls of active or inactive are those of the source. No stated cut-off is given here; in the data, active = GI50 up to about 1.1 µM and inactive = higher.
Respond only with the outcome that fits, drawn from true = active, false = inactive

Which result was noted for this compound in the test: "Cc1nc(SCC(=O)Nc2ccccc2)c2sc(=S)n(-c3ccccc3)c2n1"
false

Which result was noted for this compound in the test: "CC(=O)c1nc(C#N)c(N)o1"
false

Which result was noted for this compound in the test: C=C1C(=O)CC2C(=O)C(C)(O)CC/C=C(\C)C(=O)CC12 (stereo unspecified)
false

Which result was noted for this compound in the test: "Cc1ccc(S(=O)(=O)Nn2c(O)c(C#N)c(-c3ccc(N(C)C)cc3)c(C#N)c2=O)cc1"
false

Which result was noted for this compound in the test: "CC1(C)O[C@@H]2[C@@H]3OC(=O)C[C@@H]3[C@@H](COCc3ccccc3)[C@@H]2O1"
false

Which result was noted for this compound in the test: "CC(C)=NN/C(=N\c1ccc(Cl)cc1)NS(=O)(=O)c1ccc(Oc2cccc(Cl)c2C#N)cc1"
false

Which result was noted for this compound in the test: "N=C(N)N/N=C/c1c(Cl)nc2n1CCS2"
false

Which result was noted for this compound in the test: "CSCCCNC(=O)c1csc(-c2csc(CCNC(=O)CNC(=O)CNC(=O)OC(C)(C)C)n2)n1"
false

Which result was noted for this compound in the test: "O=C(CCCl)NN=C1NCCCCN1"
false

Which result was noted for this compound in the test: "COc1ccc(OC)c(C[P+](c2ccccc2)(c2ccccc2)c2ccccc2)c1"
false

Which result was noted for this compound in the test: "COc1ccc(/C=C\c2cc(OC)c(OC)c(OC)c2)cc1"
true

Which result was noted for this compound in the test: "C[Si](C)(C)C1=C([Si](C)(C)C)C(Cl)(Cl)C1=O"
false

Which result was noted for this compound in the test: "Nc1nc(N)c2cc(Sc3ccc4ccccc4c3)ccc2n1"
true

Which result was noted for this compound in the test: C=C(c1nc2ccc(Cl)cc2[nH]c1=O)C(O)c1ccc(C(O)C(=O)c2nc3ccc(Cl)cc3[nH]c2=O)cc1 (stereo unspecified)
false

Which result was noted for this compound in the test: "COc1ccc(CCNC(=S)NC=C2C(=O)c3ccccc3C2=O)cc1OC"
false

Which result was noted for this compound in the test: O=P(c1ccccc1)(c1ccccc1)C1CC=C2CCCCCC2C1 (stereo unspecified)
false

Source: ChEMBL document CHEMBL1201862
